molecular target: S#076: VH-L2-VL CAR-T; assay: flow cytometry on CAR-T cells; PE-labeled secondary antibody; PE-positive cells / total cells
QUANTITY: Reactivity (%)

[[record]]
binder = "3A4-A10-7 (antibody, V domains shown) VH: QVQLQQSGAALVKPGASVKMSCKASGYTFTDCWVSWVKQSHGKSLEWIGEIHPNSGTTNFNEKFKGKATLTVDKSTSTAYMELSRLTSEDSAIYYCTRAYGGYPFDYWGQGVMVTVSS VL: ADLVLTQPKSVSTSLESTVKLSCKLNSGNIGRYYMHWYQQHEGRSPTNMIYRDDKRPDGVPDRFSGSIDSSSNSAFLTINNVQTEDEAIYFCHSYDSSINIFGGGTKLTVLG"
quantitative_readout = 0.2

[[record]]
binder = "4B9-B11 (antibody, V domains shown) VH: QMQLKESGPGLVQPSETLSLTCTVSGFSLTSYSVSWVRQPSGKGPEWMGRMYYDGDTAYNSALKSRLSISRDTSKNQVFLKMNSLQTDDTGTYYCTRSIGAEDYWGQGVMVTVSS VL: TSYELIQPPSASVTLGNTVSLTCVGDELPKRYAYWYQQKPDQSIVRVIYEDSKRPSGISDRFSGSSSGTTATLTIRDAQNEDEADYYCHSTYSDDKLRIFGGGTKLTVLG"
quantitative_readout = 0.2

[[record]]
binder = "3E7-C1 (antibody, V domains shown) VH: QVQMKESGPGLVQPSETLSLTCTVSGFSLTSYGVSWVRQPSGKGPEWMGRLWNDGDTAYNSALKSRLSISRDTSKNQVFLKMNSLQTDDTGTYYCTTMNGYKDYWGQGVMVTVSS VL: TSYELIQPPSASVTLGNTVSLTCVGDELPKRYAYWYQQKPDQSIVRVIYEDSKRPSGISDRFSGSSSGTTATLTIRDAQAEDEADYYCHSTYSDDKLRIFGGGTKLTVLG"
quantitative_readout = 0.1

[[record]]
binder = "2D12-B12 (antibody, V domains shown) VH: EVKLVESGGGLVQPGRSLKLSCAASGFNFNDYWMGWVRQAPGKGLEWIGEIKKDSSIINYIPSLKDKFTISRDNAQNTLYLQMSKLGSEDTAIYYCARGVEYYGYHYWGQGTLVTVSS VL: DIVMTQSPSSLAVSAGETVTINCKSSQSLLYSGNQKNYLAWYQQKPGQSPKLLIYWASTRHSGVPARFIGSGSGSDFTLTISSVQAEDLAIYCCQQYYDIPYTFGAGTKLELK"
quantitative_readout = 0.2

